So I've got a bunch of compounds here, and I need their TGI values.
test system: XF 498 CNS; test: NCI tumour cell line growth inhibition, 48 h

Some compounds with recorded TGI:
1) C=CC1(C)CCC(C(C)C(=O)C(C=C(C)C)OC(C)=O)C12C(=O)Oc1ccccc1C2=O (stereo not given)    > 100 µM
2) O=C(Nc1ccc(Cl)c(C(F)(F)F)c1)C(=O)C(C(=O)/C=C/c1ccccc1)C1OC(=O)c2ccccc21 (stereo not given)    > 100 µM
3) CC(=O)N(C)OC(=O)CC(=O)c1ccccc1    > 100 µM
4) CCC/C(=N\NC(=S)N1CCN(c2ccccn2)CC1)c1ccccn1    0.302 µM
5) C/C(=N\NC(=S)N1CCCCCC1)c1nccnc1C    9.89 µM
6) COC(=O)C1(C)C=C(Nc2ccccc2)C(=O)N1c1ccccc1 (stereo not given)    > 100 µM
7) CCCCCCCCCCCCCS(=O)(=O)O    > 100 µM
8) Cc1ccc(NC(=O)c2[nH]c(=S)nc(N)c2-c2ccccc2C)cc1C    > 100 µM
9) O=C(O)c1ccc(NC(=O)C2C(=O)C(=O)N(c3ccc(C(=O)O)cc3)C2=O)cc1 (stereo not given)    > 100 µM

Which measured TGI value corresponds to CC(=O)Nc1ccc(/C=C(\NC(=O)c2ccccc2)c2nc3ccc4c(c3[nH]2)C(=O)c2ccccc2C4=O)cc1 ?
> 100 µM
